# System: NCI-H322M lung
# Procedure text: NCI-60 one-dose screen, 48 h (100 = growth as untreated, 0 = no growth, -100 = all killed)
# Condition notes: 10 µM unless noted
Compounds without any hit were thinned out: in the full panel of roughly 83,000, 20% have a hit.

>  <Compound>
Cc1ccc2c(c1)C(C)Cc1c(ncnc1-n1cnc3ccccc31)N2C (stereo not given)

>  <Measurement target>
NCI-H322M lung

>  <growth (%)>
43

$$$$
>  <Compound>
O=S(=O)(NCCCNc1cc(-c2cn(-c3ccccc3)nc2-c2cccc(O)c2)ccn1)c1cccc(F)c1

>  <Measurement target>
NCI-H322M lung

>  <growth (%)>
57.9

$$$$
>  <Compound>
COc1cc(NS(C)(=O)=O)ccc1Nc1c2ccc([N+](=O)[O-])cc2nc2c(C)cccc12

>  <Measurement target>
NCI-H322M lung

>  <growth (%)>
39.6

$$$$
>  <Compound>
O=C(CCC(=O)OC1CCCC1)OC1CCCC1

>  <Measurement target>
NCI-H322M lung

>  <growth (%)>
97

$$$$
>  <Compound>
COc1ccc(/C=c2\sc3n(c2=O)C2C(NN=3)N(C)C(=O)N2C)cc1 (stereo not given)

>  <Measurement target>
NCI-H322M lung

>  <growth (%)>
46.6

$$$$
>  <Compound>
CC(C)C[C@H](NC(=O)[C@H](Cc1ccccc1)n1ccc(N2CCCCC2)cc1=O)B(O)O

>  <Measurement target>
NCI-H322M lung

>  <growth (%)>
70.7

$$$$
>  <Compound>
NC(=O)c1c(NC(=O)c2ccc(OCC3CCCO3)cc2)sc2c1CCCC2 (stereo not given)

>  <Measurement target>
NCI-H322M lung

>  <growth (%)>
99.8

$$$$
>  <Compound>
COc1ccc2c(c1)NC(=O)CN2c1nc(NC2CC2)nc2ccccc12

>  <Measurement target>
NCI-H322M lung

>  <growth (%)>
40.7

$$$$
>  <Compound>
C[C@]12CC[C@@H]3c4cc(O)c(O)cc4CC[C@H]3[C@@H]1CC[C@@H]2O

>  <Measurement target>
NCI-H322M lung

>  <growth (%)>
60.6

$$$$
>  <Compound>
COc1ccc(OC)c(-c2ccc(-c3ccccc3N)c3[nH]c4ccccc4c23)c1

>  <Measurement target>
NCI-H322M lung

>  <growth (%)>
90.1

$$$$

====

// reported growth per item
# Tested on: SK-MEL-5 melanoma
# Procedure text: NCI-60 one-dose screen, 48 h (100 = growth as untreated, 0 = no growth, -100 = all killed)
# Condition notes: 10 µM unless noted
This is part of a sample that, as a whole, favours compounds with a hit. Of some 83,000 tested, about 20% had one in any assay. Activity calls are given as the source filed them. The calls were made as follows: active = growth percent below 10; inactive = the rest.
Property name: growth

>  <Compound>
COc1ccc(NC(=O)/N=c2\oc3c(OC)cccc3cc2-c2cc3ccccc3[nH]2)cc1

>  <Property name>
growth

>  <Meas value>
60.6% (inactive)

$$$$
>  <Compound>
Cc1oc2nc[nH]c(=O)c2c1C(=O)/C=C/c1ccc(Cl)cc1

>  <Property name>
growth

>  <Meas value>
37.5% (inactive)

$$$$
>  <Compound>
CC1(C)OC2COC3(C(=O)O)OC(C)(C)OC3C2O1 (stereo unspecified)

>  <Property name>
growth

>  <Meas value>
102% (inactive)

$$$$
>  <Compound>
COc1cc(Cn2c(-c3nonc3N)nc3ccccc32)ccc1C

>  <Property name>
growth

>  <Meas value>
19.1% (inactive)

$$$$
>  <Compound>
O=C(Nc1ccc(OCc2nnc(-c3ccc(Cl)cc3)o2)c(F)c1)Nc1ccc(Cl)c(Cl)c1

>  <Property name>
growth

>  <Meas value>
75.6% (inactive)

$$$$
>  <Compound>
CCOC(=O)/C=C\C(=O)NC(N)=O

>  <Property name>
growth

>  <Meas value>
105% (inactive)

$$$$

====

# System: SN12C renal
# Procedure text: NCI-60 one-dose screen, 48 h (100 = growth as untreated, 0 = no growth, -100 = all killed)
# Condition notes: 10 µM unless noted
This is part of a sample that, as a whole, favours compounds with a hit. Of some 83,000 tested, about 20% had one in any assay.
Respond with criterion met for growth values of 70% and above, criterion not met for values below.

>  <Item smiles>
CC(=O)Oc1cccc(OC(C)=O)c1OC(C)=O

>  <Category label>
criterion met

$$$$
>  <Item smiles>
O=C1OC(c2ccccc2)=N/C1=C\c1ccc([N+](=O)[O-])cc1

>  <Category label>
criterion met

$$$$
>  <Item smiles>
NC(=O)c1c(NC(=O)c2ccc3c(c2)OCO3)sc2c1CCC(=O)C2

>  <Category label>
criterion not met

$$$$
>  <Item smiles>
Cc1ccc(-c2csc3nc(C)c(CCCl)c(=O)n23)cc1

>  <Category label>
criterion met

$$$$
>  <Item smiles>
CCNC(=O)CCCCC(=O)c1c(C)[nH]c(/C=C2\N=C(c3ccc[nH]3)C=C2OC)c1C

>  <Category label>
criterion not met

$$$$
>  <Item smiles>
COc1cccc(/C=C2\SC(N3CCN(c4ccccn4)CC3)=NC2=O)c1

>  <Category label>
criterion met

$$$$
>  <Item smiles>
COc1ccc(/C=C/C(=O)c2ccc(B(O)O)cc2)cc1O

>  <Category label>
criterion met

$$$$
>  <Item smiles>
COc1cc(Br)c(OC)cc1Br

>  <Category label>
criterion met

$$$$
>  <Item smiles>
Nc1c(C(=O)Nc2cccc(C(F)(F)F)c2)sc2nc3c(cc12)CCCCC3

>  <Category label>
criterion not met

$$$$

====

// reported growth per item
# System: CCRF-CEM leukemia
# Procedure text: NCI-60 one-dose screen, 48 h (100 = growth as untreated, 0 = no growth, -100 = all killed)
# Condition notes: 10 µM unless noted
About 83,000 compounds went through this panel and 20% of them were active in at least one assay; those are over-represented in the sample as a whole.
Property name: growth (%)

>  <Molecule>
O=C(Cc1n[nH]c(=O)c2ccccc12)OCc1c(Cl)cccc1Cl

>  <Meas value>
61

$$$$
>  <Molecule>
COc1ccc(-c2nnc(COc3ccc(NS(=O)(=O)c4ccc(OC)cc4)cc3F)o2)cc1

>  <Meas value>
43.1

$$$$
>  <Molecule>
Cc1cc(Nc2nc(-c3ccncc3)nc3ccccc23)n[nH]1

>  <Meas value>
67.6

$$$$
>  <Molecule>
COc1cccc(C2CC(=O)Nc3c2c(C)nn3-c2nc3ccccc3[nH]2)c1OC (stereo not given)

>  <Meas value>
8.46

$$$$
>  <Molecule>
COc1cc(/C=C\c2cc(OC)c(OC)c(OC)c2)cc(N/C=C\C(=O)c2c[nH]c3ccccc23)c1OC

>  <Meas value>
-57.3

$$$$

====

// reported growth per item
# Test system: SK-MEL-28 melanoma
# Procedure text: NCI-60 one-dose screen, 48 h (100 = growth as untreated, 0 = no growth, -100 = all killed)
# Condition notes: 10 µM unless noted
About 83,000 compounds went through this panel and 20% of them were active in at least one assay; those are over-represented in the sample as a whole.
Property name: growth (%)

>  <Item smiles>
COc1ccc(-c2cn[nH]c2-c2cc(OC)c3c(c2)OCCO3)cc1

>  <Units label>
%

>  <Meas value>
49.3

$$$$
>  <Item smiles>
O=C1c2ccccc2C(=O)c2c1oc1oc3c(c(=O)c21)c(=O)n(-c1ccccc1)c1ccccc31

>  <Units label>
%

>  <Meas value>
39.4

$$$$
>  <Item smiles>
CCN(Cc1ccc(CN(CC)C(=O)C(Cl)(Cl)Cl)cc1)C(=O)C(Cl)(Cl)Cl

>  <Units label>
%

>  <Meas value>
96.2

$$$$
>  <Item smiles>
c1ccc([P+](CCC[P+](c2ccccc2)(c2ccccc2)c2ccccc2)(c2ccccc2)c2ccccc2)cc1

>  <Units label>
%

>  <Meas value>
75.1

$$$$
>  <Item smiles>
CC(C)CCC[C@@H](C)[C@H]1CC[C@H]2[C@@H]3CC[C@H]4C/C(=N/O)CC[C@]4(C)[C@H]3CC[C@]12C

>  <Units label>
%

>  <Meas value>
116

$$$$
>  <Item smiles>
COc1ccc(/C=C/C(=O)c2cccc(B(O)O)c2)cc1O

>  <Units label>
%

>  <Meas value>
79.2

$$$$
>  <Item smiles>
Cc1cc(NC(=O)COC(=O)c2sc3cc(F)ccc3c2Cl)no1

>  <Units label>
%

>  <Meas value>
121

$$$$
>  <Item smiles>
CC(C)C[C@H](NC(=O)[C@@H](Cc1ccccc1)n1ccc(Nc2ccccc2)cc1=O)B(O)O

>  <Units label>
%

>  <Meas value>
21.7

$$$$
>  <Item smiles>
Cc1nc(Nc2cccnc2)sc1C(=O)/C=C/c1ccc(F)cc1

>  <Units label>
%

>  <Meas value>
87.6

$$$$
